target: human CD3 (human, UniProt P07766 23-207; P04234 22-171; P09693 23-182); assay: cell-based or functional assay
Sequence (P07766 23-207, chain 1 of 3): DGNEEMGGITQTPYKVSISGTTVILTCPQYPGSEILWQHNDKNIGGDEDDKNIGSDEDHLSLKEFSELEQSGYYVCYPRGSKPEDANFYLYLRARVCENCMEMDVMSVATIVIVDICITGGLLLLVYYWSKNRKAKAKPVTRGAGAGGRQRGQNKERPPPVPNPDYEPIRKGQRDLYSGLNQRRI
Sequence (P04234 22-171, chain 2 of 3): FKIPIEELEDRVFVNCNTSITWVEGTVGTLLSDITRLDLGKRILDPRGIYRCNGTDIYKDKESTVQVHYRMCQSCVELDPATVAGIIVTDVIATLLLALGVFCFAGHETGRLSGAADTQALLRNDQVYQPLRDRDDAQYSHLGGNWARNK
Sequence (P09693 23-182, chain 3 of 3): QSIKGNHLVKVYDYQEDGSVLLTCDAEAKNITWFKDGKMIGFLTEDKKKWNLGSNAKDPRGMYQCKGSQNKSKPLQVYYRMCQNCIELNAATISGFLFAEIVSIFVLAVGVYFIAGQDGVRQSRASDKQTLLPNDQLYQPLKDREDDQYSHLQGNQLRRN
measured parameter: EC50_Fold change (Jurkat-NFAT-luciferase activation, normalized to ch147E11E2) (fold)

hu147E2-L2H3 (antibody, V domains shown, humanized 147E11E2; also called hu14E2-L2H3) VH: EVQLVQSGAEVKKPGSSVKVSCKASGYTFTSYWMHWVRQAPGQGLEWMGNINPSNGATNYNEKFKSRVTLTVDKSTSTAYMELSSLRSEDTAVYYCARDRSSQYYFDYWGQGTTVTVSS VL: DIVMTQSPDSLAVSLGERATINCKSSQSLLNSRSRKNYLAWYQQKPGQSPKLLIYWASTRESGVPDRFSGSGSGTDFTLTISSLQAEDVAVYYCTQSYTLRTFGGGTKVEIK ... 1.65
hu147E2-L1H3b (antibody, V domains shown, humanized 147E11E2 with N55S in HCDR2 (deamidation site removed); also called hu14E2-L1H3b) VH: EVQLVQSGAEVKKPGSSVKVSCKASGYTFTSYWMHWVRQAPGQGLEWMGNINPSSGATNYNEKFKSRVTLTVDKSTSTAYMELSSLRSEDTAVYYCARDRSSQYYFDYWGQGTTVTVSS VL: DIVMTQSPDSLAVSLGERATINCKSSQSLLNSRSRKNYLAWYQQKPGQPPKLLIYWASTRESGVPDRFSGSGSGTDFTLTISSLQAEDVAVYYCTQSYTLRTFGGGTKVEIK ... 1.73
hu147E2-L3H3 (antibody, V domains shown, humanized 147E11E2; also called hu14E2-L3H3) VH: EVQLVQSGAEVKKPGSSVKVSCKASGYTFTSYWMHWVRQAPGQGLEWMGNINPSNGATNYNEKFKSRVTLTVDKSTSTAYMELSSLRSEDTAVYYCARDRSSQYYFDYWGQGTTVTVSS VL: DIQMTQSPSSLSASVGDRVTITCKSSQSLLNSRSRKNYLAWYQQKPGKAPKLLIYWASTRESGVPSRFSGSGSGTDFTLTISSLQPEDFATYYCTQSYTLRTFGGGTKVEIK ... 1.36

src = patent US20250223358A1
